- Measurement Protocol: qHTS of pediatric cancer cell lines to identify multiple opportunities for drug repurposing: Primary screen for DAOY cells (AID 1347090); further: nearly all actives have a fitted effect of over 55% in size
- Experimental Conditions: DAOY medulloblastoma viability, CellTiter-Glo luminescence, 48 h; series mostly up to 46 µM
Inconclusive results are not listed. Active and inactive are the calls of the source. The call rests on the fitted dose curve; in most records, active means well fitted cell-killing curve with a large enough effect; inconclusive means small, poorly fitted or top-dose-only effect; inactive means flat fitted curve, though single readings scatter.
Could you please pick one outcome from this set? active, inactive

Study these solved cases before continuing.
INSERT INTO assay_data (compound, group) VALUES
  ('CC(C)(C)NC[C@H](O)COc1nsnc1N1CCOCC1', 'inactive'),
  ('CC(=O)Nc1ccc(OCC(O)CNC(C)C)cc1 (configuration not stated)', 'inactive'),
  ('COc1ccc(S(=O)(=O)N2c3ccc(Cl)cc3[C@@](O)(c3ccccc3Cl)[C@H]2C(=O)N2CCC[C@@H]2C(N)=O)cc1OC', 'inactive');

// query Just curious, what result did O=C(O)P(=O)(O)O get here?
// result inactive

// query I would be grateful if you could indicate the recorded call for Cc1cccc(C)c1NC(=O)CN1CCCCCC1 .
// result inactive

// query # lookup: test call for CNCCc1ccccn1
// result inactive

// query I'd appreciate the recorded outcome for CCCCNC(=O)NS(=O)(=O)c1ccc(N)cc1 from this test.
// result inactive

// query Which outcome was assigned to CCN1/C(=C/C=C/c2sc3ccccc3[n+]2CC)Sc2ccccc21 in this test?
// result active

// query Kindly provide the recorded test outcome for the following compound: CC(C)n1c(/C=C/[C@@H](O)C[C@@H](O)CC(=O)O)c(-c2ccc(F)cc2)c2ccccc21
// result active

// query Tell me the recorded outcome of this test for CCCCN1C[C@H](O)[C@@H](O)[C@H](O)[C@H]1CO .
// result inactive

// query Which result was noted for this compound in the test: Cl/C(=C\n1cncn1)c1ccc(Cl)cc1Cl
// result inactive

// query Each compound tested received a call. Report the one for CC(C)NCC(O)c1ccc2ccccc2c1 (configuration not stated) .
// result inactive

###

- System: NIH3T3
- Measurement Protocol: Cytotoxic Profiling of Annotated Libraries Using Quantitative High-Throughput Screening (AID 1296008); further: on the % scale 0 is the no-effect control and ±100 the full control effect; nearly all actives have a fitted effect of over 60% in size
- Experimental Conditions: Five cell lines viability, CellTiter-Glo ATP luminescence, 48-72 h; active compounds read low
Inconclusive results are not listed.
Assay Readout: max response (%)
// return numeric value only (unit: %, not printed)

// worked examples, max response included
INSERT INTO measurements (compound, reported_value) VALUES
  ('CCCCc1cc2ccccc2c(OCCN(C)C)n1', -15.9),
  ('Cc1cccc(C)c1NC(=O)CN1CCCC1', 1.81),
  ('CCN1CCCC(OC(=O)C(c2ccccc2)c2ccccc2)C1 (stereo unspecified)', 2.04),
  ('Cn1c(=O)c2[nH]c(Br)nc2n(C)c1=O', -3.31),
  ('OC[C@H]1O[C@@H](Oc2ccc(O)cc2)[C@H](O)[C@@H](O)[C@@H]1O', -45.3);

// query Recorded max response for CCCCC(CC)COC(=O)c1ccc(N(C)C)cc1 (stereo unspecified) with NIH3T3, please?
// result 4.63

###

- Assay System: Cytochrome P450 2C9 (Homo sapiens) (UniProt P11712)
- Sequence (P11712 whole entry, looked up): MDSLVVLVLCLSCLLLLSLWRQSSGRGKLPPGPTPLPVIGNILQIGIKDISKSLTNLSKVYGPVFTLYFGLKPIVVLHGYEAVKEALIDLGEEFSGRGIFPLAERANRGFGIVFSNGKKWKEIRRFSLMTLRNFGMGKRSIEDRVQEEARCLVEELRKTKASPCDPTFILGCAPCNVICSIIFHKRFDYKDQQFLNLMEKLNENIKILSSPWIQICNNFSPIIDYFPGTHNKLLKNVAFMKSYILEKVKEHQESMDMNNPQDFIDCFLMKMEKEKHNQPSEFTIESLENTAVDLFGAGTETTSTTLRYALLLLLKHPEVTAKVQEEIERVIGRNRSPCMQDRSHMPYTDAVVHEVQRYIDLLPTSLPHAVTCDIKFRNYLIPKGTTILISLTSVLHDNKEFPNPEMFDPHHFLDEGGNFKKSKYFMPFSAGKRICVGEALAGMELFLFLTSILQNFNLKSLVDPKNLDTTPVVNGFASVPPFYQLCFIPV
- Measurement Protocol: Cytochrome P450 family 2 subfamily C member 9 (CYP2C9) small molecule antagonists: luciferase biochemical (cell-free) qHTS assay (AID 1645842); further: nearly all actives have a fitted effect of over 55% in size
- Experimental Conditions: P450-Glo CYP2C9 enzyme assay, luciferin luminescence; series mostly up to 57.4 µM
- Description: National Center for Advancing Translational Sciences [NCATS] Assay Overview: Cytochrome P450 (CYP) enzymes are membrane-bound hemeproteins that play a key role in metabolism of drugs and xenobiotics. Assaying the effect of chemicals on CYP isozymes is useful to minimize the adverse drug reactions and toxicities in drug development process. […] The luciferin products formed are detected with a luciferin detection reagent, and the amount of light produced is proportional to CYP activity. […]
Results filed as inconclusive are left out. Calls of active or inactive are those of the source. The call rests on the fitted dose curve; in most records, active means well fitted inhibition curve with a large enough effect in the repeat runs; inconclusive means weak or mixed curves; inactive means no such curve, though single readings can be large or run the other way.
The reply should be one of these categories: active, inactive

INSERT INTO measurements (compound, group) VALUES
  ('CCCN(CCc1cccs1)[C@H]1CCc2c(O)cccc2C1', 'inactive'),
  ('O=C(Nc1ncc([N+](=O)[O-])s1)c1cccs1', 'active'),
  ('CCN(CC)CCNC(=O)c1cc(Br)c(N)cc1OC', 'inactive');

// query Field: outcome | Entry: CC1(COc2ccc(CC3SC(=O)NC3=O)cc2)CCCCC1 (configuration not stated)
// result inactive

// query Tell me the assay call for Cc1c(-c2ccccc2)oc2c(C(=O)OCCN3CCCCC3)cccc2c1=O please.
// result inactive
